Biological target: T1, human PD-L1 ECD-His (human, UniProt Q9NZQ7 19-238)
T1 construct: extracellular domain; Analyte in all SPR and BLI runs; also called hPD-L1_ECD-His; hPD-L1 ECD-His; not shown: His tag
T1 sequence (Q9NZQ7 19-238): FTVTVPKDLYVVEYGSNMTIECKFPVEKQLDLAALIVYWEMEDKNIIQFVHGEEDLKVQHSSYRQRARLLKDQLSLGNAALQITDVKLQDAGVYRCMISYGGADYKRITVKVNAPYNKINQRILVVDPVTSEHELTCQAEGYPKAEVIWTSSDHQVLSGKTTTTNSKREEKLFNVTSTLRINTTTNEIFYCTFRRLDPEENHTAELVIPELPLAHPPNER
Assay: SPR, 25 C, antibody captured by anti-human IgG Fc, hPD-L1_ECD-His analyte, 1:1 fit
ENDPOINT: kon (M⁻¹ s⁻¹)
Give a bare numeral; the unit M⁻¹ s⁻¹ is implied.

Field: example entries. Status: answers known.
| BINDER | kon, M⁻¹ s⁻¹ |
| --- | --- |
| PL3 (full-length, N297A mutant human IgG1) (antibody, V domains shown) VH: QVQLVQSGAEVKKPGSSVKVSCKASGGTFSSYTISWVRQAPGQGLEWMGRIIPILGIANYAQKFQGRVTITADKSTSTAYMELSSLRSEDTAVYYCARSRDGYSFGAFDIWGQGTLVTVSS VL: QSVVTQPPPVSGAPGQRVTISCTGSSSNIGAGYDVHWYQQLPGTAPKLLIYGNSNRPSGVPDRFSGSKSGTSASLAITGLQAEDEADYYCQSYDSSLSAPVVFGGGTKLTVLG | 348000 |
| PL12 (full-length, N297A mutant human IgG1) (antibody, V domains shown) VH: QVQLVQSGAEVKKPGSSVKVSCKASGGTFSSYAISWVRQAPGQGLEWMGRIIPILGIANYAQKFQGRVTITADKSTSTAYMELSSLRSEDTAVYYCARGIGSYSFGAFDIWGQGTMVTVSS VL: QSVLTQPPSVSGAPGQRVTISCTRSSSNIGAGHDVHWYQQLPGTAPKLLIYGNSNRPSGVPDRFSGSKSGTSASLAITGLQAEDGADYYCQSYDSSLTGVVFGGGTKLTVLG | 416000 |
| PL8 (full-length, N297A mutant human IgG1) (antibody, V domains shown) VH: EVQLVQSGAEVKKPGSSVKVSCKASGGTFSSYAISWVRQAPGQGLEWMGRIIPIFGTANYAQKFQGRVTITADESTSTAYMELSSLRSEDTAVYYCAREGVLDAFDIWGQGTMVTVSS VL: LSSELTQDPAVSVALGQTVRITCQGDSLRSYYVSWYQQKPGQAPVLVLYGKNNRPSGIPDRFSGSSSGSTASLTITGAQAEDEADYYCNSRDSTGNLLRVFGGGTKLTVLG | 382000 |

From here, focus on the item given below.
Inquiry: # kon lookup, item PL15 (full-length, N297A mutant human IgG1) (antibody, V domains shown) VH: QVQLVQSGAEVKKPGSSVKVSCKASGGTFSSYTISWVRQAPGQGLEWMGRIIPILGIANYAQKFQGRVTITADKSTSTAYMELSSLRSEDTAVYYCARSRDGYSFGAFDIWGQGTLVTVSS VL: QSVLTQPPSVSGAPGQRVTISCTGYSSNIGAGYDVHWYQHLPGTAPKLLIYGNSNRPSGVPDRFSGSKSGTSASLAITGLQAEDEADYYCQSYDNSLSVSVFGGGTKLTVLG
Reply text: 645000
